assay: Octanol-water partitioning co-efficient, log D of the compound at pH 7.4 by LC/MS/MS analysis; format: physicochemical
Would you mind telling me the reported logD of each entry?

Request: Name the reported logD value associated with the molecule `O=C1COc2ccc(C(=O)N3CCCc4ccccc43)cc2N1`
Response: 2.4

Request: Consider the molecule shown here: Cc1ccc(C2CCCCN2S(=O)(=O)c2ccc3c(c2)NC(=O)CO3)cc1 (racemic) What is its recorded logD?
Response: 3.3

Request: Returns the measured logD for the input molecule. Input: `CNC(=O)C[C@H]1COc2cc(F)ccc2N1C(=O)c1ccc2c(c1)NC(=O)OC2`
Response: 0.9

Request: Reported logD, molecule `NC(=O)C[C@H]1COc2cc(F)ccc2N1C(=O)c1ccc2c(c1)NC(=O)CO2` : ____
Response: 1.1

Request: Could you share which logD value was measured for `NS(=O)(=O)C[C@H]1COc2cc(F)ccc2N1C(=O)c1ccc2c(c1)NCCO2` ?
Response: 1.3

Request: # logD lookup, item CC1CCc2ccccc2N1S(=O)(=O)c1ccc2c(c1)NC(=O)CO2 (racemic)
Response: 3.3

Request: Look up logD: `CNC(=O)C[C@H]1COc2cc(Cl)ccc2N1C(=O)c1ccc2c(c1)NC(=O)CO2`
Response: 2

Request: // logD lookup, key: `CNC(=O)C[C@H]1CCc2cc(F)ccc2N1C(=O)c1ccc2c(c1)NC(=O)CO2`
Response: 1.4

Request: logD lookup needed for `CNC(=O)C[C@@H]1COc2cc(F)ccc2N1C(=O)c1ccc2c(c1)NC(=O)CO2` , thanks.
Response: 1.3

Request: What does the data say about its logD? Entry: `CNC(=O)C[C@H]1COc2cc(Cl)cc(C)c2N1C(=O)c1ccc2c(c1)NC(=O)CO2`
Response: 1.2

Request: logD for `NC(=O)C[C@H]1COc2cc(Cl)ccc2N1C(=O)c1ccc2c(c1)NC(=O)CO2` ?
Response: 1.7

Request: // returns reported logD for input `NS(=O)(=O)C[C@H]1COc2cc(F)ccc2N1C(=O)c1ccc2c(c1)NC(=O)CO2`
Response: 1.3

Request: What does the record list as logD for `NCC[C@H]1COc2cc(F)ccc2N1C(=O)c1ccc2c(c1)NC(=O)CO2` ?
Response: 0.2

Request: // lookup logD for `CNC(=O)C[C@H]1COc2cc(C#N)ccc2N1C(=O)c1ccc2c(c1)NC(=O)CO2`
Response: 0.9

Request: Could you tell me which logD is on file for `CNC(=O)C[C@H]1COc2cc(F)c(CC(C)C)cc2N1C(=O)c1ccc2c(c1)NC(=O)CO2` ?
Response: 3.1

Request: Form field: reported logD of `NC(=O)C[C@H]1COc2cc(F)cc(F)c2N1C(=O)c1ccc2c(c1)NC(=O)CO2`
Response: 1.1

Request: # get_value(readout='logD', item= `NC(=O)C[C@H]1COCc2cc(F)ccc2N1C(=O)c1ccc2c(c1)NC(=O)CO2` )
Response: 0.4

Request: Form field: reported logD of `CNC(=O)C[C@H]1COc2cc(F)c(CC(C)C)cc2N1C(=O)c1ccnc(NC(N)=O)c1`
Response: 2.2

----------
assay: Octanol-water partitioning co-efficient, log D of the compound at pH 7.4 by LC/MS/MS analysis; format: physicochemical
I'd be grateful if you could share measured logD for these entries.

Request: Which logD is reported for this molecule? `CNC(=O)C[C@H]1COc2cc(F)ccc2N1C(=O)c1ccc2c(c1)NC(=O)CO2`
Response: 1.4

Request: Which logD value belongs to `CNC(=O)C[C@H]1COc2cc(Br)ccc2N1C(=O)c1ccc2c(c1)NC(=O)CO2` ?
Response: 2.2

Request: What value of measured logD is listed for `CNC(=O)C[C@H]1COc2cc(F)c(OC(C)C)cc2N1C(=O)c1ccc2c(c1)NC(=O)CO2` ?
Response: 1.8

Request: Could you tell me which logD is on file for `C[C@@H]1COc2cc(F)ccc2N1C(=O)c1ccc2c(c1)NC(=O)CO2` ?
Response: 2.7

Request: Consider the molecule shown here: `Cc1ccc2c(c1)OC[C@](C)(CS(C)(=O)=O)N2C(=O)c1ccc2c(c1)NC(=O)CO2` What is its recorded logD?
Response: 1.8
